These entries and their values trace back to ChEMBL document CHEMBL5331062.

Assay: Half life in Sprague-Dawley rat at 20 mg/kg, po measured upto 24 hrs by LC-MS/MS analysis
Type: ADME, organism-based
Conditions: in vivo
endpoint: half-life (min)

P: COc1ccc(OC)c(-c2ccc(NC(=O)c3ccncc3F)cc2)c1
Q: O=C(Nc1ccc(-c2ccc(F)cc2)cn1)c1c(F)cccc1F
Which item exceeds the other in half-life, P or Q ? Respond using the label that marks the chosen record. Q
(Q: 960 min, P: 150 min)

====

Experiment: Half life in Sprague-Dawley rat at 2 mg/kg, iv measured upto 24 hrs by LC-MS/MS analysis
Format: ADME, organism-based
Settings: in vivo
endpoint: half-life (h)

1: O=C(Nc1ccc(-c2ccc(F)cc2)cn1)c1c(F)cccc1F
2: COc1ccc(OC)c(-c2ccc(NC(=O)c3ccncc3F)cc2)c1
Identify the item whose half-life is the smaller number: 1 or 2 Respond using the label that marks the chosen record. 2

====

Experiment: Tmax in Sprague-Dawley rat at 20 mg/kg, po measured upto 24 hrs by LC-MS/MS analysis
Assay type: ADME, organism-based
Details: in vivo
endpoint: Tmax (h)

A: COc1ccc(OC)c(-c2ccc(NC(=O)c3ccncc3F)cc2)c1
B: O=C(Nc1ccc(-c2ccc(F)cc2)cn1)c1c(F)cccc1F
Identify the item whose Tmax is the smaller number: A or B Respond using the label that marks the chosen record. A

====

Test: Volume of distribution at steady state in Sprague-Dawley rat at 2 mg/kg, iv measured upto 24 hrs by LC-MS/MS analysis
Assay type: ADME, organism-based
Conditions: in vivo, read-out: Vdss
endpoint: Vd (L/kg)

I: COc1ccc(OC)c(-c2ccc(NC(=O)c3ccncc3F)cc2)c1
II: O=C(Nc1ccc(-c2ccc(F)cc2)cn1)c1c(F)cccc1F
Which item exceeds the other in Vd, I or II ? Respond using the label that marks the chosen record. II
(II: 3.9 L/kg, I: 2.4 L/kg)

====

Assay: Oral bioavailability in Sprague-Dawley rat at 20 mg/kg measured upto 24 hrs by LC-MS/MS analysis
Type: ADME, organism-based
Settings: in vivo
endpoint: bioavailability (%)

I: O=C(Nc1ccc(-c2ccc(F)cc2)cn1)c1c(F)cccc1F
II: COc1ccc(OC)c(-c2ccc(NC(=O)c3ccncc3F)cc2)c1
Which item exceeds the other in bioavailability, I or II ? Respond using the label that marks the chosen record. I
(I: 34%, II: 20.6%)

====

Test: Cmax in Sprague-Dawley rat at 20 mg/kg, po measured upto 24 hrs by LC-MS/MS analysis
Assay type: ADME, organism-based
Set-up: dose 20 mg/kg, time < 24 hrs, route po
Settings: in vivo
endpoint: Cmax (ng/mL)

P: O=C(Nc1ccc(-c2ccc(F)cc2)cn1)c1c(F)cccc1F
Q: COc1ccc(OC)c(-c2ccc(NC(=O)c3ccncc3F)cc2)c1
Identify the item whose Cmax is the smaller number: P or Q Respond using the label that marks the chosen record. Q
(Q: 257 ng/mL, P: 2160 ng/mL)
